- target-or-system: UniProtKB Q12809
- Sequence (Q12809 whole entry): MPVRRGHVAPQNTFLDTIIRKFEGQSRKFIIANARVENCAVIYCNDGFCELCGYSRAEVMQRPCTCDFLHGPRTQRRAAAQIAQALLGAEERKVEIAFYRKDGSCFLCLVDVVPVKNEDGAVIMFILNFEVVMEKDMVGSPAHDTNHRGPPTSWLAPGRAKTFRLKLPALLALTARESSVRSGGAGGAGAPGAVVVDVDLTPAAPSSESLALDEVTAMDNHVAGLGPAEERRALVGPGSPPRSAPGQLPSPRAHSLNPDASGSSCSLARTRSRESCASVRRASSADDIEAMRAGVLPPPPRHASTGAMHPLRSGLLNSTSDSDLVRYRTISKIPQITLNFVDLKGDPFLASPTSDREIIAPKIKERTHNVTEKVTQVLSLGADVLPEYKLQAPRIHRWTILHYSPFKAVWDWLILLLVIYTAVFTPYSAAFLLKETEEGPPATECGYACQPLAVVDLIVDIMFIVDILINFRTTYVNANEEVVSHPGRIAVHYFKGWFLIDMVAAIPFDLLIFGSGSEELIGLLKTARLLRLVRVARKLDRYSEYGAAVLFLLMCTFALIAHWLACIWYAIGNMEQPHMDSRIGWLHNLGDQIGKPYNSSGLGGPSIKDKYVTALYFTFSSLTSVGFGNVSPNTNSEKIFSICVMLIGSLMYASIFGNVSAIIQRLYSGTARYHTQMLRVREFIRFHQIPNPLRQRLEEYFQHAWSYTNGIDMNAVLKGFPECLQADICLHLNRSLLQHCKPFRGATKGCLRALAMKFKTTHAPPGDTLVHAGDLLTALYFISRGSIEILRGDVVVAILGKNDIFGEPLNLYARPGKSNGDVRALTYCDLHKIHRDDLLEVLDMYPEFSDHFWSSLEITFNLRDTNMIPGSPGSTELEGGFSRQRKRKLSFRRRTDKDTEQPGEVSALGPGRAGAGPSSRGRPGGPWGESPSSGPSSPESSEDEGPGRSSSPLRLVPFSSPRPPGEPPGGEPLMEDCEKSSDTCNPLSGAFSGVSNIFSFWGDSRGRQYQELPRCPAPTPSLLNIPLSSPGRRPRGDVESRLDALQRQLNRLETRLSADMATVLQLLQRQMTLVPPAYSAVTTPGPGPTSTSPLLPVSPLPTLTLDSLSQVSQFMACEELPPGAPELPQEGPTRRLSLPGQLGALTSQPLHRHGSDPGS
- test-details: Ion channel assay, hERG
Counter-ions that a name gives are not always drawn.
test-readout: IC50

Completed entries (count: 2):
compound	IC50
CNC(C)C(=O)c1c[nH]c2ccc(F)cc12 (stereo not drawn) [BK-5F-NM-AMT, hydrochloride]	> 10 µM
CNC(C)C(=O)c1c[nH]c2ccc(Cl)cc12 (stereo not drawn) [BK-5Cl-NM-AMT, hydrochloride]	> 10 µM

# input for lookup
Sample CNC(C)C(=O)c1c[nH]c2ccc(Br)cc12 (stereo not drawn) [BK-5Br-NM-AMT, hydrochloride] ; IC50 observed: > 10 µM

---

- target-or-system: Muscarinic acetylcholine Receptor M3 (CHRM3) (Homo sapiens, UniProt P20309)
- Sequence (P20309 whole entry): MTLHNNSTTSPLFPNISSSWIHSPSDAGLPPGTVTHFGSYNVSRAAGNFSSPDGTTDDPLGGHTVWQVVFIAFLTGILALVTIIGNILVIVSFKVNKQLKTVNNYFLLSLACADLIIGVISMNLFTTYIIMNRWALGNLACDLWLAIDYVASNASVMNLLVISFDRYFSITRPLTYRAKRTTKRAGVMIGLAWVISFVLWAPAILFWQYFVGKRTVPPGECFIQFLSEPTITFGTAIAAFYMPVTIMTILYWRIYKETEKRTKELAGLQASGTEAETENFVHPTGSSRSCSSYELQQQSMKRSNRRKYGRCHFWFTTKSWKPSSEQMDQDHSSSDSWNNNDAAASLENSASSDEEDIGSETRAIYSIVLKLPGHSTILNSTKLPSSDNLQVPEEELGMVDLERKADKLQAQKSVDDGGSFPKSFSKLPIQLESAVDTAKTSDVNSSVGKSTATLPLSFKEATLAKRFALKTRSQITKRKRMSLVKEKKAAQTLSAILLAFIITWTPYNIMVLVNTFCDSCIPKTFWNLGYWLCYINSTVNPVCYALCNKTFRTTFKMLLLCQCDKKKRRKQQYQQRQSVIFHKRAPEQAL
- test-details: cell-based
Where a name gives a salt, the structure may show the parent alone.
Catalogue of EC50 values

Completed entries (count: 2):
compound	EC50
CNC(C)C(=O)c1c[nH]c2ccc(F)cc12 (stereo not drawn) [BK-5F-NM-AMT, hydrochloride]	> 10 µM
CNC(C)C(=O)c1c[nH]c2ccc(Cl)cc12 (stereo not drawn) [BK-5Cl-NM-AMT, hydrochloride]	> 10 µM

# input for lookup
// compound CNC(C)C(=O)c1c[nH]c2ccc(Br)cc12 (stereo not drawn) [BK-5Br-NM-AMT, hydrochloride] , assay Muscarinic acetylcholine Receptor M3 (CHRM3) (Homo sapiens, UniProt P20309), EC50 value: > 10 µM

---

# pIC50 measurements, system: Insulin Receptor (tyrosine kinase) (INSR) (Homo sapiens)
# Sequence (P06213 28-1382): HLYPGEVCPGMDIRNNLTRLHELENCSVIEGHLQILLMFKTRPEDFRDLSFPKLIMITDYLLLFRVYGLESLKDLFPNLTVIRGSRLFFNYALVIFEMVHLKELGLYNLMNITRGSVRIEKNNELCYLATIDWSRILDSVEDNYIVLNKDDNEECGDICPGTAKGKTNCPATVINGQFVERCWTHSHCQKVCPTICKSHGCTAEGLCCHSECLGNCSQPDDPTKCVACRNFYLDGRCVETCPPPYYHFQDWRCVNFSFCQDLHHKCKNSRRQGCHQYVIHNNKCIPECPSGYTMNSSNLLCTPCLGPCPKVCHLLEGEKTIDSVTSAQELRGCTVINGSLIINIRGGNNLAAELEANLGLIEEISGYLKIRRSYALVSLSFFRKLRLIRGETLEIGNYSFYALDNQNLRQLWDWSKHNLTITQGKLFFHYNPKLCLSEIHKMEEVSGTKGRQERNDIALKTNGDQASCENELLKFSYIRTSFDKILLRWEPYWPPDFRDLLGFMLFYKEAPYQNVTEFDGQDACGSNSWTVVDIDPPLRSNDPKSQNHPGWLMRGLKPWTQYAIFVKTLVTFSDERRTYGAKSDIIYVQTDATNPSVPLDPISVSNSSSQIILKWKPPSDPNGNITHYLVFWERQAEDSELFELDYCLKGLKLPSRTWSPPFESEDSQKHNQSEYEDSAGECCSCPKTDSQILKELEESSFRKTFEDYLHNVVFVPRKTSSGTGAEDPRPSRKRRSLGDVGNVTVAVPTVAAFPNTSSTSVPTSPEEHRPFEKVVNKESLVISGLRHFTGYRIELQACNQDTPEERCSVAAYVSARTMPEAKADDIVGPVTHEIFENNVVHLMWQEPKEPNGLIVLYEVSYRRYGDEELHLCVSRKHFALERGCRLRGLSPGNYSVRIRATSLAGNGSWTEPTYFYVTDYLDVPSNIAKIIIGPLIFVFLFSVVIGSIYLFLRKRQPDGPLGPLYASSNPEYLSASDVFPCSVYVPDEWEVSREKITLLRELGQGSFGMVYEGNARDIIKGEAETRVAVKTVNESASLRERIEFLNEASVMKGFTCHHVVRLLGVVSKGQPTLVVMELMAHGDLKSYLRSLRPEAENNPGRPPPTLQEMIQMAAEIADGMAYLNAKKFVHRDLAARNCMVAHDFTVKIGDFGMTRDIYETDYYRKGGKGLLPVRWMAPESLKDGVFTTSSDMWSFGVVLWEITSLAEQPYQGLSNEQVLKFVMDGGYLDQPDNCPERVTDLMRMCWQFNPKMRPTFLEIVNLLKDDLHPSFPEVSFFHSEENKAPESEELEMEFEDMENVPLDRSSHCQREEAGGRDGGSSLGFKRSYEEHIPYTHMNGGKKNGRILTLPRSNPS
pIC50: −log10 of the molar value. Where a name gives a salt, the structure may show the parent alone.

Completed entries (count: 2):
compound	test-readout	result
CNC(C)C(=O)c1c[nH]c2ccc(Br)cc12 (stereo not drawn) [BK-5Br-NM-AMT, hydrochloride]	pIC50	< 5.00
CNC(C)C(=O)c1c[nH]c2ccc(F)cc12 (stereo not drawn) [BK-5F-NM-AMT, hydrochloride]	pIC50	< 5.00

// compound CNC(C)C(=O)c1c[nH]c2ccc(Cl)cc12 (stereo not drawn) [BK-5Cl-NM-AMT, hydrochloride] , assay Insulin Receptor (tyrosine kinase) (INSR) (Homo sapiens), pIC50 value: < 5.00

---

- target-or-system: Opioid Receptor Mu (OPRM1) (Homo sapiens, UniProt P35372)
- Sequence (P35372 whole entry): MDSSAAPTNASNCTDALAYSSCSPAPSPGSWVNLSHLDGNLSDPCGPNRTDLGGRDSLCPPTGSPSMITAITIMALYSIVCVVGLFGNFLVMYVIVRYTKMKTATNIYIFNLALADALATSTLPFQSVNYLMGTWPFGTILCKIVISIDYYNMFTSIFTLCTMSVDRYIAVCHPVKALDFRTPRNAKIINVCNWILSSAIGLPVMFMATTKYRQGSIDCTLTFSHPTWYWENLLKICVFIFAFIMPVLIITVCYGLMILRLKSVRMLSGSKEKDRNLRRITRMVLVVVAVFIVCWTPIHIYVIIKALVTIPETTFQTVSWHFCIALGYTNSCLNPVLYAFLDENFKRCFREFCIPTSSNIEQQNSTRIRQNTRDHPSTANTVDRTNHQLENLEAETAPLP
- test-details: cell-based
Where a name gives a salt, the structure may show the parent alone.
test-readout: EC50

molecule	result
CNC(C)C(=O)c1c[nH]c2ccc(F)cc12 (stereo not drawn) [BK-5F-NM-AMT, hydrochloride]	> 10 µM
CNC(C)C(=O)c1c[nH]c2ccc(Cl)cc12 (stereo not drawn) [BK-5Cl-NM-AMT, hydrochloride]	> 10 µM

Sample CNC(C)C(=O)c1c[nH]c2ccc(Br)cc12 (stereo not drawn) [BK-5Br-NM-AMT, hydrochloride] ; EC50 observed: > 10 µM

---

- target-or-system: Monoamine oxidase type A (MAOA) (Homo sapiens, UniProt P21397)
- Construct: purchased Sigma
- Sequence (P21397 1-527): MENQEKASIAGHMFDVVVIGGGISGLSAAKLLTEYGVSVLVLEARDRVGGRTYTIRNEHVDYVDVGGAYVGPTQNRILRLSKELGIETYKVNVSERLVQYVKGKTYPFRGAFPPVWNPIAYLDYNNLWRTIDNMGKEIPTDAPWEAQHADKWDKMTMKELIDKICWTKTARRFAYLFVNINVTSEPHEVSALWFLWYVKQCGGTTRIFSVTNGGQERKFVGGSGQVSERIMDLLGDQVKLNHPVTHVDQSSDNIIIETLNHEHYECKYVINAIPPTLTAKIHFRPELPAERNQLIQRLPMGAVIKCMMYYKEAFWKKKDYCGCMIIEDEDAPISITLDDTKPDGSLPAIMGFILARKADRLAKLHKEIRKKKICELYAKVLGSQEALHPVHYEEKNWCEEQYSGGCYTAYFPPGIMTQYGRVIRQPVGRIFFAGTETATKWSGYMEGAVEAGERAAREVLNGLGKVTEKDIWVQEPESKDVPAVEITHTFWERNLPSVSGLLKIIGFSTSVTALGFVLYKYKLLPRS
- test-details: Enzymatic assay, MAOA (kynuramine substrate)
- Type: biochemical
- conditions: read-out: MAOA IC50; Table 10, Source: Original data
Structures can show the parent of a compound that is named as a salt.
Catalogue of IC50 values

Completed entries (count: 2):
compound	target-or-system	IC50
CNC(C)C(=O)c1c[nH]c2ccc(Cl)cc12 (stereo not drawn) [BK-5Cl-NM-AMT, hydrochloride]	Monoamine oxidase type A (MAOA) (Homo sapiens, UniProt P21397)	> 10 µM
CNC(C)C(=O)c1c[nH]c2ccc(Br)cc12 (stereo not drawn) [BK-5Br-NM-AMT, hydrochloride]	Monoamine oxidase type A (MAOA) (Homo sapiens, UniProt P21397)	> 10 µM

# input for lookup
Sample CNC(C)C(=O)c1c[nH]c2ccc(F)cc12 (stereo not drawn) [BK-5F-NM-AMT, hydrochloride] ; IC50 observed: > 10 µM
